# study_target: Metabotropic glutamate receptor 2 (Homo sapiens, UniProt Q14416)
# Sequence (Q14416 whole entry): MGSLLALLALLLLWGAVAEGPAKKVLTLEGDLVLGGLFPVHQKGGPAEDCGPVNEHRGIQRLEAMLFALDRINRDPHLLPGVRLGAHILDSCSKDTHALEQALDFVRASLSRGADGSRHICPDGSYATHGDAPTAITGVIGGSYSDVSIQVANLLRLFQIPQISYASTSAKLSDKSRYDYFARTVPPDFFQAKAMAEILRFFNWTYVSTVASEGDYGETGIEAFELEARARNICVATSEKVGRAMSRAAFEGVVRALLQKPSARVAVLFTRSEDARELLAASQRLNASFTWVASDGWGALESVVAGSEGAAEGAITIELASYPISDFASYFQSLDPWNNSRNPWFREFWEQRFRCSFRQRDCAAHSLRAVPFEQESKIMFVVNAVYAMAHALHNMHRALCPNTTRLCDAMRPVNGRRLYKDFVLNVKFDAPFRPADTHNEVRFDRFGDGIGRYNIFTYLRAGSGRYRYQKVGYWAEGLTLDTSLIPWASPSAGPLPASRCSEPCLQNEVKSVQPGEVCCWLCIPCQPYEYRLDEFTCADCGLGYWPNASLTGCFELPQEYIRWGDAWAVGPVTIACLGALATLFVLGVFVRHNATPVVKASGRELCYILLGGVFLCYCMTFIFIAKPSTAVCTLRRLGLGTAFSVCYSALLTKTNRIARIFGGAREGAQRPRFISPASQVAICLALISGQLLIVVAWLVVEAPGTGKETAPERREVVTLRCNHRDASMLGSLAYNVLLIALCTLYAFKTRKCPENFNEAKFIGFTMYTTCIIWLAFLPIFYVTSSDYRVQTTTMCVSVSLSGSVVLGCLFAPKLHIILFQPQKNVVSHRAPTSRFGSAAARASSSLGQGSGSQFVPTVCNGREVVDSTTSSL
# test_method_notes: Concentration required for the half-maximal inhibition of cAMP formation in BHK cells expressing mGluR2.
# Format: functional, cell-based
pIC50: −log10 of the molar value.
reported_property: pIC50

Please report the recorded pIC50 for N[C@@H](C(=O)O)[C@@H]1[C@@H](C(=O)O)[C@@H]1c1ccccc1 . < 3.52

---

# study_target: Glutamate receptor ionotropic, AMPA (Rattus norvegicus, UniProt P19490+P19491+P19492+P19493)
# test_method_notes: Binding affinity towards Ionotropic glutamate receptor AMPA
pKi: −log10 of the molar value.
reported_property: pKi

Below, each entry is followed by its recorded pKi result.
compound	pKi
N[C@@H](C(=O)O)[C@H]1[C@H](C(=O)O)[C@H]1c1ccccc1	3.90
N[C@H](C(=O)O)[C@H]1[C@@H](C(=O)O)[C@@H]1c1ccccc1	3.85
N[C@@H](C(=O)O)[C@@H]1[C@H](C(=O)O)[C@H]1c1ccccc1 (stereo in doubt; 47)	3.55
N[C@@H](C(=O)O)[C@@H]1[C@H](C(=O)O)[C@@H]1c1ccccc1	3.60
N[C@@H](C(=O)O)[C@H]1[C@@H](C(=O)O)[C@@H]1c1ccccc1	3.80

I. N[C@@H](C(=O)O)[C@@H]1[C@@H](C(=O)O)[C@@H]1c1ccccc1
II. N[C@H](C(=O)O)[C@H]1[C@H](C(=O)O)[C@H]1c1ccccc1
Between the entries labelled I and II , which has a larger pKi value on record? Respond with the label that goes with your answer. II

This collection of values is drawn from ChEMBL document CHEMBL1129330.
